# measurement.description: luminescence decrease in constitutive quorum sensing strain – strain BB721, luminescence readout, counter-screen for LuxS inhibitor project, confirmation (AID 2727)
# condition.summary: Vibrio harveyi BB721 luminescence, 9 h; at 7.5 µM
The list shows a part of the results. The source made the active and inactive calls.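 Rule for the calls: active = inhibition above about 80% in every replicate, not just on average (limit read from the data); inconclusive = at least half of replicates past the limit, but not all; inactive = fewer than half of replicates past the limit.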
# valid calls are yes (1) (active), no (0) (inactive); nothing else

O=C(/C=C/c1ccc2c(c1)OCCO2)c1ccc(O)cc1 : yes (1)
Cc1ccccc1C(=O)Nc1ccc(N2CCCCCC2)cc1 : yes (1)
COC(=O)c1ccc(SCc2ccccc2)nc1 : yes (1)
Cc1ccc(NS(=O)(=O)c2ccc3c(c2)NC(=O)CO3)cc1 : yes (1)
N/C(=N\OC(=O)CCc1ccccc1)c1cccnc1 : yes (1)
CCOc1ccc(/C=N/NC(N)=S)cc1 : yes (1)

Name the outcome recorded for Cc1ccsc1C(=O)OCC(=O)c1cc2ccccc2o1 in the assay. yes (1)

Name the outcome recorded for O=S(=O)(Nc1cccc(Oc2ccc(Cl)cc2)n1)c1ccc(F)cc1 in the assay. yes (1)

Name the outcome recorded for Cc1cccc(CSc2ccc(-c3cccs3)nn2)c1 in the assay. yes (1)

====

# measurement.description: luminescence decrease in constitutive quorum sensing strain – strain BB721, luminescence readout, counter-screen for LuxS inhibitor project, confirmation (AID 2727)
# condition.summary: Vibrio harveyi BB721 luminescence, 9 h; at 7.5 µM; active compounds read high
The list shows a part of the results.
Assign Condition met whenever inhibition does not fall below 90%; assign Condition not met whenever it does.

Use these answered entries as a reference point.
Cc1cc(C(=O)OCC(=O)Nc2ccc(F)c(F)c2)c(C)o1 : Condition met
O=C(CCC(=O)c1cccs1)Nc1nc2ccccc2s1 : Condition met
Cc1ccc(NC(=O)C2CC2c2ccccc2)cc1 (stereo not drawn) : Condition met
O=C(/C=C/c1ccc2c(c1)OCO2)NCc1ccc(F)cc1 : Condition met
CN(Cc1cnccn1)C(=O)c1cc(COc2cccc(C(F)(F)F)c2)on1 : Condition met
S=C(NCc1ccc(Cl)cc1)NC1CCCCC1 : Condition met

For this compound, is measured inhibition 90% or higher? Cc1nn(CC(=O)Nc2ccc(F)cc2)c(=O)c2ccccc12 Condition met

For this compound, is measured inhibition 90% or higher? CC(CNc1ccc([N+](=O)[O-])cc1)NC(=O)c1ccccc1Br (stereo not drawn) Condition not met

For this compound, is measured inhibition 90% or higher? O=C(Cn1cnc2ccccc2c1=O)Nc1cccc(S(=O)(=O)N2CCCCC2)c1 Condition not met

====

# measurement.description: luminescence decrease in constitutive quorum sensing strain – strain BB721, luminescence readout, counter-screen for LuxS inhibitor project, confirmation (AID 2727)
# condition.summary: Vibrio harveyi BB721 luminescence, 9 h; at 7.5 µM; active compounds read high
Some of the results follow.
observed.property: inhibition (%)
Give bare numbers, in %.

Batch lookup, inhibition per entry.
1. CC(C)(C)c1ccc(OC2=CS(=O)(=O)c3ccccc32)cc1
2. CCOC(=O)c1nn(-c2cccc(C)c2)cc1C(=O)c1ccccc1
3. CC(=O)c1cccc(OCc2cc(C(=O)NC(C)Cc3cccnc3)no2)c1 (centres undefined)
4. Cc1ccc(Cc2nc(-c3cccc(C)c3)no2)cc1

[92.5, 87.7, 92.4, 92.5]
